# System: SK-MEL-5
# test_protocol: NCI tumour cell line growth inhibition, 48 h
Calls of active or inactive are those of the source. Rule as the data show it: active = GI50 up to about 1.1 µM and inactive = higher.
The categories you may choose from are 1 (yes) for active, 0 (no) for inactive

Example entries and their recorded answers appear below.
molecule	tested_on	answer_label
COC(=O)/C(=N\NC(=O)c1ccccc1O)C(C#N)c1ccccc1 (stereo not drawn)	SK-MEL-5	0 (no)
O=C1NCCCC12CCCNC2=O	SK-MEL-5	0 (no)
Cc1ccc(NC(=O)c2cc3ccccc3c(/N=N/c3cc(S(=O)(=O)O)ccc3O)c2O)c(C)c1	SK-MEL-5	0 (no)
COC(=O)C1CCC(=O)N1C(c1ccc(OC)cc1)c1ccc2c(c1)OCO2 (stereo not drawn)	SK-MEL-5	0 (no)

Asked: Write down the call the test reported for this molecule. Item: OC(c1ccccc1)(c1ccccc1)c1cccnc1
Given back: 0 (no)

Asked: Write down the call the test reported for this molecule. Item: C=CCOc1ccc(C2c3c(n[nH]c3O)CC(C)(O)C2C(=O)OC)cc1OC (stereo not drawn)
Given back: 0 (no)

Asked: Write down the call the test reported for this molecule. Item: COc1cc2c(c(OC)c1OC)-c1ccc(SC)c(=O)cc1C(CC(=O)Oc1cccc([N+](=O)[O-])c1)C2 (stereo not drawn)
Given back: 1 (yes)

Asked: Write down the call the test reported for this molecule. Item: CCOC(=O)c1c(N2CCCC2)[nH]c(=O)c(C(c2c(O)c(C(=O)OCC)c(N3CCCC3)[nH]c2=O)C(C)C)c1O
Given back: 0 (no)
